test system: MALME-3M melanoma; assay: NCI-60 one-dose screen, 48 h; settings: 10 µM unless noted
About 83,000 compounds went through this panel and 20% of them were active in at least one assay; those are over-represented in the sample as a whole. Activity calls are given as the source filed them. Rule for the calls: active = growth percent below 10; inactive = the rest.
Respond only with the outcome that fits, drawn from 1 = active, -1 = inactive

Solved entries:
NS(=O)(=O)N(c1cc(C(F)(F)F)cc(C(F)(F)F)c1)C1CCN(Cc2ccc(C(F)(F)F)cc2)CC1 | -1
O=C(O)C1CCN(S(=O)(=O)c2ccc(-c3ccccc3)cc2)CC1 | -1

Entry CC(=O)N1N=C(c2ccc(Cl)cc2)CC1c1c(C)nn(-c2ccccc2)c1N(C)Cc1ccccc1 (centres undefined) : call = ?
-1

What was the test verdict on CC(C)OP(=O)(OC(C)C)c1ncc(-c2ccc(C(F)(F)F)cc2)c(NC2CCCCCC2)n1 ?
1

GET /call?item= CN(C)c1ccc(-c2nc3ncc(Br)cc3o2)cc1 returns the recorded outcome of this test.
-1

Short answer needed: outcome of this test for COCCCNS(=O)(=O)c1ncnc2nc[nH]c12 ?
-1

----------
tested on: NCI-H460 lung; test: NCI-60 one-dose screen, 48 h (100 = growth as untreated, 0 = no growth, -100 = all killed); details: 10 µM unless noted
About 83,000 compounds went through this panel and 20% of them were active in at least one assay; those are over-represented in the sample as a whole.
For each of the molecules below, state its growth.
Numbers only, in %.

Check out these entries, answers already filled in.
O=C(/C=C(\Nc1ccccc1)c1ccccc1)c1cn(-c2ccc([N+](=O)[O-])cc2)nn1 | 91
O=C(Nc1ccc2c(c1)C(=O)c1ccccc1-2)c1ccccc1 | 87.4
COc1cnc2c(c1)C(=O)c1c-2n(CCCn2ccnc2)c(=O)c2cc(F)ccc12 | -62.9
C/C(=C\CCc1ccsc1)CC/C=C(\C)CCCN1CCSCC1 | 76.9
COc1ccc2ncccc2c1Cc1c(OC)ccc2ncccc12 | 82.4
Cc1onc(-c2ccccc2Cl)c1C(=O)N[C@@H]1C(=O)N2[C@@H]1SC(C)(C)[C@@H]2C(=O)O | 112

Okay, now this molecule:
Given the entry C[C@H](C(=O)N[C@@H](Cc1ccc(-c2ccccc2)cc1)C(=O)NC1CC(C)(C)N(C)C(C)(C)C1)c1ccc(-c2ccccc2)c(F)c1 , report its measured growth.
-75.8

----------
tested on: SF-268 CNS; test: NCI-60 one-dose screen, 48 h; details: 10 µM unless noted
About 83,000 compounds went through this panel and 20% of them were active in at least one assay; those are over-represented in the sample as a whole. The source made the active and inactive calls. How the source made its calls: active means growth percent below 10; inactive means the rest.
Result category, one only: 1 = active, 0 = inactive

CC(=O)N1N=C(c2ccc(Nc3ccnc4cc(Cl)ccc34)cc2)CC1c1ccc(Cl)cc1 (stereo not given) | 0
COc1cnc2c(c1)C(=O)c1c-2n(CCCN2CCC(O)CC2)c(=O)c2cc(F)ccc12 | 1
COc1cccc(/C=N\NC(=O)c2ccncc2)c1O | 0
CCN1CC2=C(Nc3nc(SC)[nH]c(=O)c3C2c2cc(OC)c(OC)c(OC)c2)/C(=C/c2cc(OC)c(OC)c(OC)c2)C1 (stereo not given) | 0
CCOC(=O)Nc1cc(-c2ccc(C)c(NS(C)(=O)=O)c2)nn2c(C)nnc12 | 0

Which outcome was entered for the compound Nc1ccc(N=Nc2ccccc2)cc1[N+](=O)[O-] in this test?
0

// outcome(item) with item = CCOC(=O)C(Br)=P(c1ccccc1)(c1ccccc1)c1ccccc1
0

Tell me the assay call for C=C1CCC2C(C)(COC(=O)CC)C(OC(=O)CC)CCC2(C)C1C/C=C1/C(=O)OCC1OC(=O)CC (stereo not given) please.
0

Lab log entry: CCCCCCCCCCCCCCCCNC(=O)Nc1ccc2ccccc2c1 — outcome as called in the assay?
0

----------
system: SK-MEL-5 melanoma; assay: NCI-60 one-dose screen, 48 h; conditions: 10 µM unless noted
The panel holds about 83,000 compounds, 20% with a hit somewhere; the sample as a whole holds those more often. Calls of active or inactive are those of the source. How the source made its calls: active means growth percent below 10; inactive means the rest.
Choose one outcome from this list and give only that: active, inactive

// below: answered molecules
Nc1ccc(Oc2c(F)c(F)c(Oc3ccc(N)cc3)c(F)c2F)cc1 | inactive
c1ccc2nc(Cn3c[n+](Cc4ccc5ccccc5n4)c4ccccc43)ccc2c1 | active
CC(C)Cn1cnc2c(NCn3nc(-c4cc(Cl)cc(Cl)c4Cl)n(/N=C/c4ccc(Cl)cc4)c3=S)nc3ccccc3c21 | inactive
c1ccc(N2c3nc4ccccc4cc3Sc3cc4ccccc4nc32)nc1 | inactive
Nc1nc(NC2CC2)c2ncn(C3C=CC(CO)C3)c2n1 (centres undefined) | inactive
CC(C)N(Cc1ccccc1)c1c(Cl)ssc1=O | inactive
Oc1ccc(/C=N/Nc2nc3ccccc3s2)c(O)c1 | inactive
O=C1C(=O)/C(=C/c2ccccc2)CCCCCC/C1=C/c1ccccc1 | inactive
O=C1Nc2ccc(Cl)cc2/C1=C/c1cccs1 | inactive
CC(NC(N)=S)c1ccccc1 (centres undefined) | inactive

Outcome logged for CC(=O)Nc1ccc(C(=O)COc2cccc(/C=C3\CCc4ccccc4C3=O)c2)cc1 in this assay:
inactive

What call does the record list for Cc1nn(-c2ccccc2)cc1/C=C1\SC(N2CCCCC2)=NC1=O ?
inactive

Which outcome did this test record for the molecule COc1ccc2c(c1)C(=Nc1cc(OC)c(OC)c(OC)c1)C(=O)N2 ?
inactive

Field: outcome | Entry: CCOC(CNCc1cc(C)c2[nH]c3ccccc3c2c1C)OCC
inactive

----------
test system: SF-268 CNS; assay: NCI-60 one-dose screen, 48 h; conditions: 10 µM unless noted
This is part of a sample that, as a whole, favours compounds with a hit. Of some 83,000 tested, about 20% had one in any assay. Activity calls are given as the source filed them. Rule for the calls: active = growth percent below 10; inactive = the rest.
Bench note: report the call from 1.0 = active, 0.0 = inactive

As a guide, the following entries are already answered.
CN1CCN(c2nc3scc(-c4ccccc4)c3c(=O)[nH]2)CC1 | 0.0
COc1ccc2c(c1)[n+](=O)c(C(=O)/C=C/c1cc(OC)c(OC)c(OC)c1)c(C)n2[O-] | 0.0
CC[C@@H](C)/C=C(C)/C=C/C(=O)c1c(O)c(-c2ccc(O)cc2)cn(OC2CC(=O)CCC(C)OC(=O)CC2O)c1=O (stereo not given in full) | 1.0
Nc1nc(SCc2cccnc2)c2ncn(C3OC(CO)C(O)C3O)c2n1 (stereo not given) | 0.0

Outcome logged for CC(NC(N)=S)c1ccccc1 (stereo not given) in this assay:
0.0

----------
test system: EKVX NSCLC; test: NCI-60 one-dose screen, 48 h; conditions: 10 µM unless noted
This is part of a sample that, as a whole, favours compounds with a hit. Of some 83,000 tested, about 20% had one in any assay. Activity calls are given as the source filed them. The calls were made as follows: active = growth percent below 10; inactive = the rest.
Respond with a class label; see active, inactive

O=C(CNC(=O)c1cccc2ccccc12)Nc1ccccc1Oc1cccc(O)c1 | inactive
O=C(NC1CCS(=O)(=O)C1)c1ccc(C(=O)c2ccccc2)cc1 (stereo not given) | inactive
c1ccc2c(-c3nc4ccccc4[nH]3)cccc2c1 | inactive
CC1CN(C2CCCCC2)C(=O)NC1=O (stereo not given) | inactive
COc1ccc(C(=O)/C=C/c2ccc(C)cc2)cc1OC | inactive
O=c1[nH]c(N2CCC(Cc3ccccc3)CC2)nc2sc3c(c12)CCCC3 | inactive
CN(C)c1ccc(-c2nc3ncc(Br)cc3o2)cc1 | inactive
COC(=O)c1cc2oc(/C=N\NC(=O)c3cc4oc(C)c(C)c4[nH]3)cc2[nH]1 | inactive
Oc1c(Cl)cc(Oc2cc(Cl)c(O)c(CN3CCOCC3)c2)cc1CN1CCOCC1 | inactive
O=C1CSC(c2ccccc2O)N1c1nnc(Cn2ccnc2)o1 (stereo not given) | inactive

Now take the following compound into account.
Tell me the assay call for CC(=O)O[C@H]1CC[C@@]2(C)C(=CC[C@@H]3[C@@H]2CC[C@]2(C)C(c4cccnc4)=CC[C@@H]32)C1 please.
inactive

----------
tested on: K-562 leukemia; assay: NCI-60 one-dose screen, 48 h (100 = growth as untreated, 0 = no growth, -100 = all killed); settings: 10 µM unless noted
The panel holds about 83,000 compounds, 20% with a hit somewhere; the sample as a whole holds those more often. Calls of active or inactive are those of the source. How the source made its calls: active means growth percent below 10; inactive means the rest.
PROPERTY_MEASURED: growth

Consider the worked cases shown below.
Cc1ncc(C(=O)Nc2ccc(CN3CCN(C)CC3)c(C(F)(F)F)c2)cc1C#Cc1cncc2ncccc12 | -10.7% (active)
O=C(c1ccc(N2CCOCC2)cc1[N+](=O)[O-])N1CCOCC1 | 159% (inactive)

Request body: readout growth, system K-562 leukemia, query COc1ccc(-c2cnc(SCC(=O)Nc3ccc(-c4nc5ccccc5s4)cc3)n2-c2ccc(OC)cc2)cc1 . Return the value.
108% (inactive)

----------
tested on: TK-10 renal; assay: NCI-60 one-dose screen, 48 h (100 = growth as untreated, 0 = no growth, -100 = all killed); settings: 10 µM unless noted
Compounds without any hit were thinned out: in the full panel of roughly 83,000, 20% have a hit.
PROPERTY_MEASURED: growth (%)
Numbers only, in %.

Example entries and their recorded answers appear below.
CCOC(=O)C(C(=O)OCC)C1CCCCC1 | 101
COc1ccc(C(=O)/C=C/c2ccc(C)cc2)cc1OC | 114
Nc1nc(SCc2cccnc2)c2ncn(C3OC(CO)C(O)C3O)c2n1 (centres undefined) | 99.5

Proceed to the following item.
Bench note: what growth did O=C(C(=O)c1cc(Br)ccc1O)c1cc(Br)ccc1O show?
61.4
